Kindly state % Inhibition for each of the entries shown.
- System: ICR mice
- experiment: Phenylquinone-induced writhing model in mice (writhes counted in following 5-10 minute period)
- Assay type: in vivo
- applied-conditions: 32 mg/kg IP, relative to vehicle group
Numbers only here, please. The scale is %.

Asked: # query: % Inhibition of entry CCC(=Nc1ccccc1CC)NCCCN1CC[C@]23c4c5ccc(O)c4O[C@H]2[C@@H](O)C=CC3[C@H]1C5 (stereo partly shown)
Given back: 70

Asked: Quick one: % Inhibition for CC(=N)NCCCN1CC[C@]23c4c5ccc(O)c4O[C@H]2[C@@H](O)C=CC3[C@H]1C5 (stereo partly shown) ?
Given back: 38

Asked: Suppose we examine the compound CCC(=Nc1ccccc1)NCCCN1CC[C@]23c4c5ccc(O)c4O[C@H]2[C@@H](O)C=CC3[C@H]1C5 (stereo partly shown) ; what % Inhibition value has been reported?
Given back: 92

Asked: Param item = CC(=Nc1ccccc1)NCCCN1CC[C@]23c4c5ccc(O)c4O[C@H]2[C@@H](O)C=CC3[C@H]1C5 (stereo partly shown) ; retrieve measured % Inhibition.
Given back: 67

* * *

- Test system: ICR mice
- experiment: Phenylquinone-induced writhing model in mice (writhes counted in following 5-10 minute period)
- Assay type: in vivo
- applied-conditions: 8 mg/kg IP, relative to vehicle group
assay-endpoint: % Inhibition (%)
Your answer should be a plain number; it is taken to be in %.

Asked: // lookup % Inhibition for CCC(=Nc1ccccc1CC)NCCCN1CC[C@]23c4c5ccc(O)c4O[C@H]2[C@@H](O)C=CC3[C@H]1C5 (stereo partly shown)
Given back: 52

Asked: Look at this compound and give its reported % Inhibition. CCC(=Nc1ccccc1)NCCCN1CC[C@]23c4c5ccc(O)c4O[C@H]2[C@@H](O)C=CC3[C@H]1C5 (stereo partly shown)
Given back: 46

Asked: Entry under review: CC(=N)NCCCN1CC[C@]23c4c5ccc(O)c4O[C@H]2[C@@H](O)C=CC3[C@H]1C5 (stereo partly shown) . Reported % Inhibition?
Given back: 23

Asked: Report % Inhibition for CC(=Nc1ccccc1)NCCCN1CC[C@]23c4c5ccc(O)c4O[C@H]2[C@@H](O)C=CC3[C@H]1C5 (stereo partly shown) please.
Given back: 47

* * *

- Tested on: ICR mice
- experiment: Phenylquinone-induced writhing model in mice (writhes counted in following 5-10 minute period)
- Type: in vivo
- applied-conditions: 32 mg/kg IP
Please go through the items and note down their No. of Writhings, Average.
Give a plain numeric answer without units written out.

Asked: Need No. of Writhings, Average, item CC(=Nc1ccccc1)NCCCN1CC[C@]23c4c5ccc(O)c4O[C@H]2[C@@H](O)C=CC3[C@H]1C5 (stereo partly shown)
Given back: 5

Asked: What value of No. of Writhings, Average has been recorded for this entry: CC(=N)NCCCN1CC[C@]23c4c5ccc(O)c4O[C@H]2[C@@H](O)C=CC3[C@H]1C5 (stereo partly shown)
Given back: 8

Asked: Param item = CCC(=Nc1ccccc1CC)NCCCN1CC[C@]23c4c5ccc(O)c4O[C@H]2[C@@H](O)C=CC3[C@H]1C5 (stereo partly shown) ; retrieve measured No. of Writhings, Average.
Given back: 7

Asked: Returns the measured No. of Writhings, Average for the input molecule. Input: CCC(=Nc1ccccc1)NCCCN1CC[C@]23c4c5ccc(O)c4O[C@H]2[C@@H](O)C=CC3[C@H]1C5 (stereo partly shown)
Given back: 1

From: patent US20060111381A1
